Just for reference, ChEMBL document CHEMBL1130929 is where these values come from.

tested_target: Neuronal acetylcholine receptor; alpha2/beta4 (Homo sapiens, UniProt P30926+Q15822)
Sequence (P30926 whole entry): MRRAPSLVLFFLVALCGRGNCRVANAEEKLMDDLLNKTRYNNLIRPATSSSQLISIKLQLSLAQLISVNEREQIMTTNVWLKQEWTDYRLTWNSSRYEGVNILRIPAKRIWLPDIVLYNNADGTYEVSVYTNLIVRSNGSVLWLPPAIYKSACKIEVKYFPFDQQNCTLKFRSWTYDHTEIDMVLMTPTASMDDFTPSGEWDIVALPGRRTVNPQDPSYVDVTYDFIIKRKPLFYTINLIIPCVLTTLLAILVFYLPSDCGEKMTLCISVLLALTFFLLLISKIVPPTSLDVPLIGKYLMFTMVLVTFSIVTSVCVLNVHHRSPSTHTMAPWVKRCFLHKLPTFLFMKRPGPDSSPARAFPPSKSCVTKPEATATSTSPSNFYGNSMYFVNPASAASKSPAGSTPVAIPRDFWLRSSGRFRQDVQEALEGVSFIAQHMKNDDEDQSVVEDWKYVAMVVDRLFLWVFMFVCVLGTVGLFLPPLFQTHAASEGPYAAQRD
Sequence (Q15822 whole entry): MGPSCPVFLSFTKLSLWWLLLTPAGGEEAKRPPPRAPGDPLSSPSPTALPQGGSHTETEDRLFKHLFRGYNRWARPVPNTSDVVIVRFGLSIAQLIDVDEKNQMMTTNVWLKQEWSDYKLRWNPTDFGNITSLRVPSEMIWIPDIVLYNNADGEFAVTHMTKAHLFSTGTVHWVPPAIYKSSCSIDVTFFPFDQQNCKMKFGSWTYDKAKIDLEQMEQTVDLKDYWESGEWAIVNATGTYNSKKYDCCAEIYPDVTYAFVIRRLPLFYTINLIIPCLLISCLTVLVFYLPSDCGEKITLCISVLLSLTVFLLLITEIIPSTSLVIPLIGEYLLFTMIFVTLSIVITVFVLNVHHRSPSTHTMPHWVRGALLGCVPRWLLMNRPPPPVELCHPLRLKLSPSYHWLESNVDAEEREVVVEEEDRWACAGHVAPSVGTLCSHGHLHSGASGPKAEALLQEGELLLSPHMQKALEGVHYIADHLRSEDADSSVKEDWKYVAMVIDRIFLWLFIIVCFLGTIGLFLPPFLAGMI
assay_protocol: Compound was evaluated for agonist activity against activated human recombinant Nicotinic acetylcholine receptor alpha2-beta4 in Xenopus Oocytes
recorded_endpoint: pEC50
Here pEC50 is given on a logarithmic scale as minus log10 of the concentration in mol/L.

Determine from records and report pEC50 for COc1cc2c(cn1)C1NCCC1CC2 (stereo unspecified)
4.06

====

tested_target: Neuronal acetylcholine receptor; alpha4/beta2 (Homo sapiens, UniProt P17787+P43681)
Sequence (P17787 whole entry): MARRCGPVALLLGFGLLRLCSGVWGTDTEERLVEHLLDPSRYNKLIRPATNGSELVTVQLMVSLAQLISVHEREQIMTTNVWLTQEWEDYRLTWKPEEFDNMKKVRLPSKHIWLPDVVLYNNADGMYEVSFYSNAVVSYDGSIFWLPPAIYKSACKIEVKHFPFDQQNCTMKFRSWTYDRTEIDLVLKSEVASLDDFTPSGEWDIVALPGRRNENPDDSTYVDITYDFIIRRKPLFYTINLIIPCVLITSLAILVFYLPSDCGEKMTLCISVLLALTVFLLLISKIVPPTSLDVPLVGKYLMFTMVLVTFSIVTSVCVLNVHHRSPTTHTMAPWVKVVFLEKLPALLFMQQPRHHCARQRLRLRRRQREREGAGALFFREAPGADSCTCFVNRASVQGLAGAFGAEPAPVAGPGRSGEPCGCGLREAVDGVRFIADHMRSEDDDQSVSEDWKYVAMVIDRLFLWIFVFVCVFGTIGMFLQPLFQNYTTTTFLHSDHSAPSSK
Sequence (P43681 whole entry): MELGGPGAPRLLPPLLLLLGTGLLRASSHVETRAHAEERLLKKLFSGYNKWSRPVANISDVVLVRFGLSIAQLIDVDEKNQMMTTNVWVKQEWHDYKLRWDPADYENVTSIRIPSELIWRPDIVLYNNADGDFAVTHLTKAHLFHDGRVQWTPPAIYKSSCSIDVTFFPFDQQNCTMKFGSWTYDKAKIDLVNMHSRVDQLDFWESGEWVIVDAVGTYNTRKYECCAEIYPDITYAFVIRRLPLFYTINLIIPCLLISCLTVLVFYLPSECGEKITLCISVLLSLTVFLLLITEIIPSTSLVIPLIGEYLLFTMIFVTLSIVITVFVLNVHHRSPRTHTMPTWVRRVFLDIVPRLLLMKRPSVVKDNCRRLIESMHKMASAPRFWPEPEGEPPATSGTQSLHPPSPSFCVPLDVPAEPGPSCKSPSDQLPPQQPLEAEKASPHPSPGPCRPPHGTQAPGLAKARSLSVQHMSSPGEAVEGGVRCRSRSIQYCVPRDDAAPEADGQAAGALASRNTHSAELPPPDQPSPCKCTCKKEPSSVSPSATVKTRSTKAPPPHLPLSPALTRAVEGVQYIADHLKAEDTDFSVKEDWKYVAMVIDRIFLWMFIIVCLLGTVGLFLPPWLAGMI
assay_protocol: Compound was evaluated for agonist activity against activated human recombinant aNicotinic acetylcholine receptor alpha4-beta2 in Xenopus Oocytes
Format: functional, cell-based
recorded_endpoint: EC50 (µM)
Respond with the bare value in µM.

Determine from records and report EC50 for COc1cc2c(cn1)C1NCCC1CC2 (stereo unspecified)
3

====

assay_protocol: In vitro ability to displace tritiated nicotine from rat brain binding sites
recorded_endpoint: IC50 (nM)
Respond with the bare value in nM.

Determine from records and report IC50 for COc1cc2c(cn1)C1NCCC1CC2 (stereo unspecified)
1900

====

assay_protocol: In vitro agonist activity against activated human recombinant alpha3-beta4 neuronal acetylcholine receptors (nAChR) in Xenopus Oocytes
Assay type: functional, cell-based
recorded_endpoint: EC50 (µM)
Respond with the bare value in µM.

Determine from records and report EC50 for COc1cc2c(cn1)C1NCCC1CC2 (stereo unspecified)
81
